The measured values listed here are drawn from ChEMBL document CHEMBL1914438.

System: Photobacterium leiognathi
Test: Antibacterial activity against Photobacterium leiognathi Sh1 assessed as inhibition of bacterial luminescence at 0.25 mg/mL after 10 mins by bioluminometry-based acute action test
Type: functional
Set-up: scale not given: the % may be the effect or the level left
Activity: recorded values
Don't forget the unit after the value.

// known answers, use as guide
CCC1C2CCC(C2)C1NC(=O)CSc1nc2ccccc2c2nc(=O)c(C)nn12 (centres undefined)	62.5%
Cc1nn2c(SCC(=O)NC34CC5CC(CC(C5)C3)C4)nc3ccccc3c2nc1=O	0%
Cc1ccc(-c2nn3c(SCC(=O)Nc4ccc(C56CC7CC(CC(C7)C5)C6)cc4)nc4ccccc4c3nc2=O)cc1	50%
Cc1nn2c(SCC(=O)O)nc3ccccc3c2nc1=O	0%
O=C(CSc1nc2ccccc2c2nc(=O)c(-c3ccccc3)nn12)NC12CC3CC(CC(C3)C1)C2	56.52%
CCC1C2CCC(C2)C1NC(=O)CSc1nc2ccccc2c2nc(=O)c(-c3ccc(C)cc3)nn12 (centres undefined)	120%
COc1ccc(-c2nn3c(SCC(=O)Nc4ccc(C56CC7CC(CC(C7)C5)C6)cc4)nc4ccccc4c3nc2=O)cc1	59.57%
O=C(O)CSc1nc2ccccc2c2nc(=O)c(-c3ccccc3)nn12	50%

Would you kindly look at the next entry?
Record `O=C(CSc1nc2ccccc2c2nc(=O)c(-c3ccccc3)nn12)Nc1ccc(C23CC4CC(CC(C4)C2)C3)cc1` : what is its Activity with Photobacterium leiognathi?
54.41%

====

Tested on: CAKI-1
Experiment: Cytotoxicity against human Caki1 cells assessed as cell growth at 10^-5 M after 48 hrs by SRB assay
Assay type: functional
Conditions: CAKI-1, 48 h, read-out: Activity
parameter.measured: growth at 10 µM
Include the unit after the number when you answer.

Before answering, review these 3 worked examples.
Cc1nn2c(SCC(=O)O)nc3ccccc3c2nc1=O	96%
Cc1ccc(-c2nn3c(SCC(=O)O)nc4ccccc4c3nc2=O)cc1	82.8%
CCC1C2CCC(C2)C1NC(=O)CSc1nc2ccccc2c2nc(=O)c(-c3ccc(OC)cc3)nn12 (centres undefined)	36.1%

Now, please, on to the next compound.
Look at this compound and give its reported growth at 10 µM. `COc1ccc(-c2nn3c(SCC(=O)O)nc4ccccc4c3nc2=O)cc1`
91.4%

====

Tested on: Photobacterium leiognathi
Test: Antibacterial activity against Photobacterium leiognathi Sh1 assessed as inhibition of bacterial luminescence at 0.025 mg/mL after 10 mins by bioluminometry-based chronic action test
Format: functional
Set-up: scale not given: the % may be the effect or the level left
parameter.measured: Activity (%)
Quick reminder: number only, in %, skip the unit.

Some entries whose results are on file:
O=C(CSc1nc2ccccc2c2nc(=O)c(-c3ccccc3)nn12)Nc1ccc(C23CC4CC(CC(C4)C2)C3)cc1	118.75
Cc1nn2c(SCC(=O)NC34CC5CC(CC(C5)C3)C4)nc3ccccc3c2nc1=O	25

# lookup: Activity of `O=C(CSc1nc2ccccc2c2nc(=O)c(-c3ccccc3)nn12)NC12CC3CC(CC(C3)C1)C2`
97.14

Entry under review: `Cc1nn2c(SCC(=O)Nc3ccc(C45CC6CC(CC(C6)C4)C5)cc3)nc3ccccc3c2nc1=O` . Reported Activity?
86.96

Entry under review: `Cc1ccc(-c2nn3c(SCC(=O)Nc4ccc(C56CC7CC(CC(C7)C5)C6)cc4)nc4ccccc4c3nc2=O)cc1` . Reported Activity?
170

Tell me the measured Activity of `COc1ccc(-c2nn3c(SCC(=O)Nc4ccc(C56CC7CC(CC(C7)C5)C6)cc4)nc4ccccc4c3nc2=O)cc1` , please.
48.72

====

Tested on: A549
Assay: Cytotoxicity against human A549 cells assessed as cell growth at 10^-5 M after 48 hrs by SRB assay
Format: functional
Conditions: A549, 48 h, read-out: Activity
parameter.measured: growth at 10 µM
Respond with the figure and its unit, in that order.

Example results:
CCC1C2CCC(C2)C1NC(=O)CSc1nc2ccccc2c2nc(=O)c(-c3ccc(OC)cc3)nn12 (centres undefined)	50.4%
Cc1ccc(-c2nn3c(SCC(=O)O)nc4ccccc4c3nc2=O)cc1	96.5%
COc1ccc(-c2nn3c(SCC(=O)O)nc4ccccc4c3nc2=O)cc1	95.9%

Now turn to the next molecule.
What value of growth at 10 µM has been recorded for this entry: `O=C(O)CSc1nc2ccccc2c2nc(=O)c(-c3ccccc3)nn12`
82.5%

====

Tested on: Photobacterium leiognathi
Test: Antibacterial activity against Photobacterium leiognathi Sh1 assessed as inhibition of bacterial luminescence at 0.25 mg/mL after 10 mins by bioluminometry-based acute action test
Type: functional
Set-up: scale not given: the % may be the effect or the level left
Measured Activity values are reported for all entries that follow.
Record the value in %, omitting the unit from your answer.

CCC1C2CCC(C2)C1NC(=O)CSc1nc2ccccc2c2nc(=O)c(-c3ccc(OC)cc3)nn12 (stereo not given)	90.9
CN(C)[C@@H]1C(O)=C(C(N)=O)C(=O)[C@@]2(O)C(O)=C3C(=O)c4c(O)cccc4[C@@](C)(O)[C@H]3C[C@@H]12	0
COc1ccc(-c2nn3c(SCC(=O)O)nc4ccccc4c3nc2=O)cc1	0

Item under review: `Cc1ccc(-c2nn3c(SCC(=O)O)nc4ccccc4c3nc2=O)cc1` . Reported Activity?
0

Given the entry `Cc1nn2c(SCC(=O)Nc3ccc(C45CC6CC(CC(C6)C4)C5)cc3)nc3ccccc3c2nc1=O` , report its measured Activity.
32.86
